target: Trace amine-associated receptor 1 (Homo sapiens); test: TAAR1 activation by candidate antagonists – cell-based, fluorescence, counter-screen for TAAR1 antagonist project (AID 651955); conditions: hTAAR1 cell line, agonist mode, at 3 µM, stronger effect = higher value;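 further: CHO cells stably expressing TAAR1 with calcium dye readout; 0% = DMSO vehicle and 100% = full agonist response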
Hit rate of the full screen: of about 2,400 compounds, about 40 (2%) were called active. Not all results are given here.
Overview of recorded activation for various molecules
measured.property: activation (%)

Cc1cccc(C)c1NC(=O)CNC(=O)C1CCCC1; 6.49
CNC(=O)c1ccsc1NC(=O)c1ccc(S(=O)(=O)N2CCc3ccccc32)cc1; 6.5
C=CCC[C@@H](Cc1ccc(F)cc1)C(=O)O[C@H](CNC(=O)[C@H](CC=C)CC(=O)N(CCO)Cc1ccccc1)c1ccccc1; 2.53
COc1ccc(CN(C)C(=O)c2cc(-c3ccc(C)cc3C)nc3ccccc23)c(OC)c1OC; 12.2
COc1ccc(S(=O)(=O)N2CCCC(C(=O)Nc3ccc(NC(=O)c4ccccn4)cc3)C2)cc1 (stereo not given); 11
